method summary: reduced cellular PGC1a acetyl-lysine signal – cell-based, cherry-picked samples, dose response (AID 720514);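 further: actives lower the acetylation signal so they count as inhibitors of PGC1a acetylation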
condition label: U2OS PGC1a acetylation, AlphaLISA, overnight; series mostly up to 19.5 µM
Hit rate of the full screen: of about 2,100 compounds, about 300 (14%) were called active. About 2% were inconclusive and are not listed. Only a sample is shown. Measured potencies and affinities stand elsewhere.
metric: outcome

Solved entries:
{"compound": "Cc1cccc2cc(CN(Cc3ccc(F)cc3)Cc3nnnn3C3CCCC3)c(=O)[nH]c12", "outcome": "inactive"}
{"compound": "O=C(CCCCCN1C(=O)c2cccc3cccc(c23)C1=O)NCc1cccnc1", "outcome": "inactive"}
{"compound": "Cc1ccccc1-c1ccc(C2[C@@H]3CN(S(=O)(=O)c4ccccc4C)C[C@H]2N3)cc1 (stereo not given in full)", "outcome": "inactive"}
{"compound": "COc1cccc(N(CC(=O)NCc2cccnc2)S(C)(=O)=O)c1", "outcome": "inactive"}
{"compound": "O=C(NCc1ccccc1)C1Cc2c(-c3ccc(Cl)cc3)ccnc2O1 (stereo not given)", "outcome": "inactive"}

QUERY: Find the recorded outcome belonging to `O=C(COC(=O)c1ccco1)NCc1ccc2c(c1)OCO2` and report it.
RESULT: inactive

QUERY: May I ask what outcome has been recorded for `O=C(Nc1cccnc1)c1ccc(Oc2ccccc2)cc1` ?
RESULT: inactive

QUERY: For `COc1cc(-c2cnc3c(NC(C)=O)cc(-c4ccccc4CN(C)C)cn23)cc(OC)c1OC` , what is its reported outcome?
RESULT: inactive

QUERY: Which measured outcome value corresponds to `COC(=O)C[C@@H]1C[C@H]2c3cc(NC(=O)Nc4ccc(C(F)(F)F)cc4)ccc3O[C@H]2[C@H](CO)O1` ?
RESULT: inactive

QUERY: Field request: outcome | item: `Cc1cccc(Nc2nnc(-c3ccc(C(=O)N4C[C@H]5C[C@H](C4)c4cccc(=O)n4C5)cc3)c3ccccc23)c1`
RESULT: inactive
